# MEASURED ON: UniProt Q6IN02
# Sequence (Q6IN02 whole entry, looked up): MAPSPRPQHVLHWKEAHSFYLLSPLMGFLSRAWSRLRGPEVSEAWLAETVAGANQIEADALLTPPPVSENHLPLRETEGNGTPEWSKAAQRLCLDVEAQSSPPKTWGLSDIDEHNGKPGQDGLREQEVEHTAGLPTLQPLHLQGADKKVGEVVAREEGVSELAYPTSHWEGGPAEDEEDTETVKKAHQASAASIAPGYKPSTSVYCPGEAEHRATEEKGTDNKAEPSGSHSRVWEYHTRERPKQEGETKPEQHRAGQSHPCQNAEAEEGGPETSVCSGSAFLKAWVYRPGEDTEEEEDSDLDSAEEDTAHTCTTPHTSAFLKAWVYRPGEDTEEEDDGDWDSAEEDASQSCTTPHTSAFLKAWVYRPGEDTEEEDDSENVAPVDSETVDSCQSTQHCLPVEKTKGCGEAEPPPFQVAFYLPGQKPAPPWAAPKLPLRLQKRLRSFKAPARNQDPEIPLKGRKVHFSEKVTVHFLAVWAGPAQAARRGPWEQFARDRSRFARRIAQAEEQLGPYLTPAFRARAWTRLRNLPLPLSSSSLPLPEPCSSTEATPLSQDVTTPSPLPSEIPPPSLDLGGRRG
# METHOD NOTES: Peg3 promoter luciferase inhibitors, potency, dose response, cell-based, HeLa, CREF/GAPDH counter-screen panel (AID 624167)
# EXPERIMENTAL PARAMETERS: HeLa PEG-Prom luciferase reporter, overnight, CREF/GAPDH counter-screens, mean of runs
Activity calls are given as the source filed them.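 How the source made its calls: active means mean IC50 for reducing PEG3 promoter reporter signal at or below a set limit, with IC50 above the limit in both counter screens; inactive means the rest, including counter screen hits.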
Thanks in advance; please answer with one of these: true (1) (active), false (0) (inactive)

>  <COMPOUND>
O=C1CCC2S/C(=C/Nc3ccc(C(F)(F)F)cc3)C(=O)N12 (stereo not given)

>  <GROUP>
false (0)

$$$$

Incoming: Recorded test outcome, item CCN(CCN(C)C)C(=O)C1CCN(S(=O)(=O)c2c(C)noc2/C=C/c2ccccc2F)CC1
Outgoing: false (0)

Incoming: Recorded test outcome, item COC(=O)c1cc(=O)n(Cc2ccco2)c(=Nc2ccc(F)cc2)s1
Outgoing: true (1)

Incoming: Recorded test outcome, item Cc1nn(-c2nc3ccccc3[nH]2)c(=O)c2ccccc12
Outgoing: true (1)

Incoming: Recorded test outcome, item CCCCCCCNC(=O)C1(CC2CC(c3cccc(Br)c3)=NO2)CCNCC1 (stereo not given)
Outgoing: true (1)
